- experiment_notes: water solubility of crystal form A
- Type: physicochemical
experimental_readout: solubility

// solubility lookup, key: C=C1C[C@@]23CCC4[C@@](C)(CCC[C@@]4(C)C(=O)O[C@@H]4OC(CO)[C@@H](O)C(O)C4OC4OC(CO)[C@@H](O)C(O)C4O)C2CC[C@]1(OC1OC(CO)C(O)C(OC2OC(CO)C(O)C(O)C2O)C1OC1OC(CO)C(O)C(O)C1O)C3 (stereo partly shown) [crystal form A of Rebaudioside D, Rebaudioside D] ~600 µg/mL
